Listing of recorded GI50 by entry.
system: RXF 393; assay: NCI tumour cell line growth inhibition, 48 h
Active and inactive are the calls of the source. Rule as the data show it: active = GI50 up to about 1.1 µM and inactive = higher.

Molecule	Assay Result
CCOC(=O)C1=C(Nc2ccc(Cl)c(Cl)c2)OC/C1=N\NC(=O)Cc1ccccc1	> 100 µM (inactive)
Cn1c(=O)c2c(nc3n2CCCC(=O)N3CC(O)CCl)n(C)c1=O (stereo not given)	> 100 µM (inactive)
CN(/N=C(\C(=O)O)c1ccccc1)C1=NCCCCN1	> 100 µM (inactive)
COC(=O)C1=C(O)C(C(=O)OC)[C@@]2(O)[C@@H](C(=O)OC)[C@H](C)[C@@H](C)[C@@H]1[C@@H]2C(=O)OC (stereo not given in full)	13.2 µM (inactive)
CCOC(=O)CN1C(=O)c2c(NC(=O)C(=O)O)cccc2S1(=O)=O	> 100 µM (inactive)

Next item in the queue.
Suppose we examine the molecule O=C1C[C@H]2CC3(CC[C@H]2CN1)OCCO3 ; what GI50 value has been reported?
> 100 µM (inactive)
